Value source: PubChem BioAssay (NCI)

- Assay: NCI Yeast Anticancer Drug Screen. Data for the sgs1 mgt1 strain (AID 161);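 further: 0% = growth of cultures given vehicle only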
- Stated Conditions: S. cerevisiae sgs1 mgt1 strain, at 50.0 µM, active compounds read high
Compounds without any hit were thinned out: in the full panel of roughly 79,000, 15% have a hit.
Quantity Name: growth inhibition (%)
Hi! Could you send only the number? It should be in %, unit omitted.

Some compounds with recorded growth inhibition:
Compound | Unit String | growth inhibition
Cc1ccc(S(=O)(=O)CC(=O)CC(=O)C(=O)Nc2ccc(C)cc2C)cc1 | % | -21.1
Nc1ccc(S(=O)c2ccc(N)cc2)cc1 | % | 8.25
Cc1cc(Cl)ccc1-n1nc(C)c2c(N)nc(N)nc21 | % | 13.7
CCN(CC)CC(c1ccccc1)C(C)(O)c1ccccc1 (centres undefined) | % | -8

Now look at this entry.
May I ask what growth inhibition has been recorded for `ClCC[n+]1ccc2ccccc2c1` ?
-13.4

====

- Assay: NCI Yeast Anticancer Drug Screen. Data for the mec2-1 strain (AID 157)
- Stated Conditions: S. cerevisiae mec2-1 strain, at 50.0 µM, active compounds read high
About 79,000 compounds went through this panel and 15% of them were active in at least one assay; those are over-represented in the sample as a whole.
Lab note: anything with growth inhibition at or over -10% counts as 1; the rest go in 0.

Compound | Group Label
CC(C)COS(=O)(=O)O | 1
CC1CC2C3(C1)CC(C(=O)OC3=O)C2(C)C (centres undefined) | 0
CCCCCCCCCCCCCCCCCCCCOC1OC(COC(C)=O)C(OC(C)=O)C(OC(C)=O)C1OC(C)=O (centres undefined) | 0
CCN(CC)CC(O)CO (centres undefined) | 0

Say whether `c1ccc2c3c(cc(CCc4cc5c(c6ccccc46)CCCC5)c2c1)CCCC3` shows growth inhibition of -10% or more.
0

Textbook exercise: given the entry O=C1N(c2ccccc2)C2(O)C(=O)c3ccccc3C2(O)N1c1ccccc1 (centres undefined) , state whether its growth inhibition is greater than or equal to -10%.
1

Determine whether this compound has growth inhibition no lower than -10%: COc1nc(SC)nc2c1cnn2C1OC(C(O)CO)C(OC)C1O (centres undefined)
1

Please tell me: is the compound `O.O.O=c1cc(Cl)[nH]c(=O)[nH]1.[NH2-].[NH2-].[Pt+4]` at or over -10% in terms of growth inhibition?
0

Decide: is the reported value of growth inhibition for OC1c2ccccc2CC1Br (centres undefined) equal to or greater than -10%?
1

====

- Assay: NCI Yeast Anticancer Drug Screen. Data for the sgs1 mgt1 strain (AID 161);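 further: 0% = growth of cultures given vehicle only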
- Stated Conditions: S. cerevisiae sgs1 mgt1 strain, at 50.0 µM, active compounds read high
The panel holds about 79,000 compounds, 15% with a hit somewhere; the sample as a whole holds those more often.
Quantity Name: growth inhibition (%)
# number only, unit % dropped from output

Examples with their reported growth inhibition follow.
Molecule | growth inhibition / %
COc1ccc([N+](=O)[O-])c(C#N)c1 | 3.35
CC(=O)NC1CCC2CCCCC2C1 (stereo unspecified) | -8.75
CCOC(=O)C1Oc2ccccc2O1 | -7
CN=Cc1ccccc1O.CN=Cc1ccccc1O.[Cu+2] | -10.9
CC(=O)c1ccc(N2C(=O)C3c4[nH]c5ccccc5c4C4CCC(C(C)(C)C)CC4C3C2=O)cc1 (stereo unspecified) | 0.5
CCC(c1cccc(OC)c1)C(C(=O)O)c1ccc(OC)cc1 (stereo unspecified) | 12.6
Cc1cccc(NC(=O)Nc2cccc(C)c2)c1 | -2
C=CCCCCCCCC(O)C1C[C@H](O)C(CCCCC)O1 (stereo partly specified) | 9.25
N/C=N/O | 16.6
CCN(C(=O)NC(C)(C)C)c1cccc(C)c1 | 0.35

Quick one: growth inhibition for `S=c1nc[nH]c2nc(Cl)[nH]c12` ?
-21.6

Recorded growth inhibition for `N#Cc1cccc(-c2ccc(-c3ccccc3)o2)c1` , please?
27.1

====

- Assay: NCI Yeast Anticancer Drug Screen. Data for the cln2 rad14 strain (AID 165);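 further: 0% = growth equal to vehicle treated cultures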
- Stated Conditions: S. cerevisiae cln2 rad14 strain, at 50.0 µM, active compounds read high
About 79,000 compounds went through this panel and 15% of them were active in at least one assay; those are over-represented in the sample as a whole.
Lab note: class by growth inhibition, see range 1 = under -10%, range 2 = from -10% up to 10%, range 3 = 10% and over

Molecule | Group Label
CC(=O)CC(=O)Nc1ccc(Cl)cc1 | range 2
CC(=O)/C(C(=N)C(=O)c1ccccc1)=C(\C)O | range 1
O=C(O)C1CSC(c2cccs2)N1 (centres undefined) | range 2
CCN(CC)CCCC(C)Nc1cc(C)c2nc(C)cc(C)c2c1C (centres undefined) | range 1
COC(=O)C(Nc1ccc(OC)cc1)c1ccccc1 (centres undefined) | range 1
CC(=O)O[C@H]1CC[C@]2(C)[C@H]3C(=O)C=C4[C@@H]5C[C@@](C)(C(=O)O)CC[C@]5(C)CC[C@@]4(C)[C@]3(C)CC[C@H]2C1(C)C | range 3

Record `C/C(=N\n1c(-c2ccccc2)nc2ccccc2c1=O)c1ccc(C)cc1` — which class?
range 2

For `COC(=N)C(C)C` , which growth inhibition bin applies?
range 3

Which band does `O=c1oc2ccccc2c(O)c1C=NC(=S)c1ccncc1` fall in?
range 3

Entry `Cn1c(=O)c2ccccc2[n+]2c(-c3cccc([N+](=O)[O-])c3)csc12` belongs to which category?
range 3

Sort into band: `CN(C)c1ccc(Cc2ccc(N(C)C)cc2)cc1`
range 1

Pick a category. Item: COc1ccc2c(c1)C(Cc1ccc(Oc3cc(CC4c5cc(OC)ccc5CC[N+]4(C)C)ccc3OC)cc1)[N+](C)(C)CC2 (centres undefined)
range 2

Which growth inhibition category applies to `O=C1C=C(c2ccccc2)CC1` here?
range 2

Which band does `CCCCS(=O)(=O)Cc1ccccc1` fall in?
range 1

Kindly identify the class of CC(=O)NC(Cc1cc(I)c(OC(C)=O)c(I)c1)C(=O)O (centres undefined) .
range 2

====

- Assay: NCI Yeast Anticancer Drug Screen. Data for the sgs1 mgt1 strain (AID 161);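 further: 0% = growth of cultures given vehicle only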
- Stated Conditions: S. cerevisiae sgs1 mgt1 strain, at 50.0 µM, active compounds read high
The panel holds about 79,000 compounds, 15% with a hit somewhere; the sample as a whole holds those more often. The source made the active and inactive calls. Cut-off read from the data, not from the text of the source: active = growth inhibition above about 70%; inactive = the rest.
Listed below: growth inhibition values for each entry.

Compound | growth inhibition
CCc1cccc(CC)c1NC1=CC(=O)C(=O)c2ccccc21 | 10% (inactive)
CN(C)c1nc2nc[nH]c2c(=S)n1C | 4.1% (inactive)
O=C(O)c1ncnn1-c1ccccc1 | 17.4% (inactive)
COC1(OC)C=NNc2nccn21 | 3.3% (inactive)

Given the compound `[Cl][Bi]([O]c1ccccn1)[O]c1ccccn1` , what is its reported growth inhibition?
-13.4% (inactive)

What does the data say about its growth inhibition? Entry: `Cc1ccccc1S(=O)(=O)N1C(=O)c2ccccc2S1(=O)=O`
5.35% (inactive)

For `Oc1cccc2ccc(Br)nc12` , what is its reported growth inhibition?
7.25% (inactive)

Fill in the blank: the reported growth inhibition of `N/N=C/c1cccn1-c1ccccc1Cl` is ____.
26.9% (inactive)

Which growth inhibition is listed for `Cn1c([N+](=O)[O-])cnc1CN1CCN(CCO)CC1` ?
-39.1% (inactive)

Dear colleague, I am looking for the recorded growth inhibition of the following compound: `Oc1ccc(-c2ccc(Br)cc2)cc1`
-14.4% (inactive)

What does the record list as growth inhibition for COc1ccc(N2C(=O)C3c4[nH]c5ccc(OC)cc5c4C4CCC(C(C)(C)C)CC4C3C2=O)cc1 (stereo not drawn) ?
-5.45% (inactive)

# input compound: `CC(=O)Oc1ccc(OC(C)=O)c2cc3ccccc3cc12` ; wanted: its growth inhibition
-32.9% (inactive)

Returns the measured growth inhibition for the input compound. Input: `N#C/C(=C\NC(N)=S)C(=O)c1ccc2ccccc2c1`
-25.9% (inactive)

====

- Assay: NCI Yeast Anticancer Drug Screen. Data for the bub3 strain (AID 167)
- Stated Conditions: S. cerevisiae bub3 mutant strain, at 50.0 µM
About 79,000 compounds went through this panel and 15% of them were active in at least one assay; those are over-represented in the sample as a whole. Calls of active or inactive are those of the source. No stated cut-off is given here; in the data, active means growth inhibition above about 70%; inactive means the rest.
Respond only with the outcome that fits, drawn from label 1 for active, label 0 for inactive

Compound | Group Label
O=C(c1ccc(Cl)s1)C(Cl)C(Cl)c1ccc(Cl)s1 (configuration not stated) | label 0
COc1cc(OC)c(NC(N)=O)cc1Cl | label 0
CCC(C)CCC(=O)OCC(=O)c1ccc(-c2ccccc2)cc1 (configuration not stated) | label 0

Please state the recorded outcome for this compound: CC(O)c1ccccc1Br (configuration not stated)
label 0

State the result this test recorded for CS(=O)c1ccc(C(F)(F)F)cc1C(=O)O (configuration not stated) .
label 0

Per the assay record, what outcome was assigned to `O=C1c2cc([N+](=O)[O-])sc2C(=O)c2ccsc21` ?
label 1

What did this assay record as the result for `COc1ccccc1N=NNc1ccc(S(=O)(=O)NC(C)=O)cc1` ?
label 0
